measurementTarget: T1, PBP1bγ (penicillin-binding protein 1b, gamma form) (E. coli, UniProt P02919-2 1-799)
T1 construct: also called 1b WT
T1 sequence (looked up): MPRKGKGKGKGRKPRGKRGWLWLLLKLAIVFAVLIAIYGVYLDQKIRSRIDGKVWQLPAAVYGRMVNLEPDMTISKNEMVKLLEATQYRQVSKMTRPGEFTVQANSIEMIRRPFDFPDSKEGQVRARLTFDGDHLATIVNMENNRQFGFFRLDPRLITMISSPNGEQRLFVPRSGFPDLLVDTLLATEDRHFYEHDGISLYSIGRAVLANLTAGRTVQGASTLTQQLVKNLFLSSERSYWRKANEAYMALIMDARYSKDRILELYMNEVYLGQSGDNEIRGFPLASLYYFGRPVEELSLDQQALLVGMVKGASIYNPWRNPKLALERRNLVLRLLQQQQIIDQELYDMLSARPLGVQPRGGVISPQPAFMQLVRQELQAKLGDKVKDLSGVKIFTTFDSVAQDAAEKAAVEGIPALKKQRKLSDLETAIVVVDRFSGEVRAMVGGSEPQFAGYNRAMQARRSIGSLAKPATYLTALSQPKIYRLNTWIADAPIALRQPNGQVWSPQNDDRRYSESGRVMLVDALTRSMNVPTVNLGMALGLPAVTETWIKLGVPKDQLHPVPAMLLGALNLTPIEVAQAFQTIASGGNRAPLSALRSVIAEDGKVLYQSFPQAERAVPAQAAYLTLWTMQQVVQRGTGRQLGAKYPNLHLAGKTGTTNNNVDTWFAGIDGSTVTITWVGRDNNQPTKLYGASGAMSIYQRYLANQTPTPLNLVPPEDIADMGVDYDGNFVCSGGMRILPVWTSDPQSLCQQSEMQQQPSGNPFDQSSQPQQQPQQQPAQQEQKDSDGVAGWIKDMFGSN
assayName: fluorescence polarisation; fluorescence anisotropy; FITC-Lys69–Gln93 probe at 100 nM, serial dilutions of the proteins in their specific buffer, 384-well plates, 30 min at 25 °C
assaySetup: both partners purified
No end group written: not given here. *: point of attachment. FITC = O=C1OC2(c3ccc(O)cc3Oc3cc(O)ccc32)c2ccc(NC(=S)*)cc21
valueKind: Kd (µM)
The reply should contain only the number, in µM.

Give the value of Kd reported for the following: {FITC}-KVTGNGLPPKPEERWRYIKELESRQ (also called F-EFtsN; fluorescent EFtsN peptide; source: synthetic peptide, bought: Synpeptide (Shanghai, China)) [FITC-labeled peptide (FITC-Lys69–Gln93) of FtsN]
8.1
